# key: entry, value: apparent KD of K4 kissing-loop reporter
System: K4 kissing-loop RNA reporter;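 note: bound reporter read as fluorescence of individual clusters on recovered sequencing chips by microscopy, with normalized cluster intensities fitted with a binding model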
MEASUREMENT_PROTOCOL: apparent KD of K4 kissing-loop reporter; higher = weaker reporter binding
STUDY_CONDITIONS: Eterna round: R107; input ligand: none
All answers are understood in nM, so give the number only.

Consider the sequence shown here: GGAUCCACCAGUGAUGUUGGAGAAAACUCCAAGGAUAUGACGAAAGUCAGAAGGUGGUAGACUGGGCAAAGUCCGGUCGGAUCCA [FmnA10 G66] What is its recorded apparent KD of K4 kissing-loop reporter?
144

Another sequence to check: "UCCAAGGACGAACCGGUAUGAUCACCGGAUACCAGAGGCGAAAGCCUCCCUUGGCAGCCGAGUGUAGUGAUGUUACACUGGUUCU"
90.7

Another sequence to check: GGCCACGGGCGAGGAUAUGGGCAUGAUUCAUCCUGGAGUGAUGUUCCAGGUCCUACGUUUCUAGCACCAGAAGGCGUUUGUUGCU [Enistein]
215

Further cases:
Consider the sequence shown here: AUGUAUGAAUUAGGAUAUCGUGAGCUUUGCAUAUAUAUGAUAAAUGGAUAUGUCGUAGUGAUGUUACGAGAAGGAGUGUGGAGUA [KL-XFMN-B3] What is its recorded apparent KD of K4 kissing-loop reporter?
43.9

Another sequence to check: UUGAUAUGAUAGUAUCCUGUUUGAUAAAGGCAGGAUAUCGAAAAUUCGAGAAGGGCCAUUAUAUGCAGUGAUGUUGCAAAUAAGU [Exclusion FMN A Gf 24]
52.6
